Tested on: Lactuca sativa
Test Summary: Inhibition of seed germination in Lactuca sativa after 24 hrs
Assay type: functional, organism-based
pIC50: −log10 of the molar value.

Molecule	Assay Target	pIC50
CC1=CC(=O)CC(C)(C)[C@@]1(O)/C=C/C(C)=C\C(=O)O [(+)-ABSCISIC ACID]	Lactuca sativa	5.24

Origin of values: ChEMBL document CHEMBL1681691
